Recorded Percent Effect for the following compounds
# tested on: Sialic acid-binding Ig-like lectin 9 (Homo sapiens) (UniProt Q9Y336)
# Sequence (Q9Y336 whole entry): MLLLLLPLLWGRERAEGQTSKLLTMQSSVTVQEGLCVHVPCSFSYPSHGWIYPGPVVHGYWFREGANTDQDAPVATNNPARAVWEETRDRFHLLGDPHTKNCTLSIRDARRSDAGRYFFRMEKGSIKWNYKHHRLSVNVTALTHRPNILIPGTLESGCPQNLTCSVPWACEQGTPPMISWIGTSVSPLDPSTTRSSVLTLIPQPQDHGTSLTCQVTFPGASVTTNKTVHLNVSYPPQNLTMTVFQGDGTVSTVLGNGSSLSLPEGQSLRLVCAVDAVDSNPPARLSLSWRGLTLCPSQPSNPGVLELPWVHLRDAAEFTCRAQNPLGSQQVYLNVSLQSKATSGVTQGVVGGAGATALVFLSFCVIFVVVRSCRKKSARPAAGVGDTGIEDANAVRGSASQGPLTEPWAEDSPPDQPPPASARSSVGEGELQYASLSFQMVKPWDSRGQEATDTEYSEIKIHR
# protocol notes: Hs-Siglec9 ALPHAscreen SOP 20170721
# Parameters: scale not given: direction of the effect not stated beside the values
# assay setup: 10 µM
Quick note: give the figure in %, leave out the unit.

As a guide, the following entries are already answered.
Specify Percent Effect for CO[C@H]1CCN(c2ncccn2)[C@H]1Cc1ccccc1 and stop.
7.23

Specify Percent Effect for CC(C)CN1CCCn2nc(CNC(=O)c3cccnc3O)cc2C1 and stop.
22.5

Specify Percent Effect for COc1ccc(OC)c(C2CCN(Cc3nc(C)n4ccccc34)C2)c1 (configuration not stated) and stop.
16.9

Specify Percent Effect for CC(C)c1cc(C(=O)NCCN2CCCS2(=O)=O)n[nH]1 and stop.
0.501

Specify Percent Effect for Cc1nc(C)n(CC2CCCN2CCOc2ccc(C#N)cc2)n1 (configuration not stated) and stop.
10.4

***
Specify Percent Effect for Cc1ncc2c(n1)CN(CC(=O)Nc1ccncc1)CC2 and stop.
3.22

Specify Percent Effect for O=C(c1ccncc1)N1CCCC2(COCCN(c3ccccc3)C2)C1 (configuration not stated) and stop.
-2.94

Specify Percent Effect for c1cnn(CC2CN(Cc3ccc(-n4ccnc4)cc3)CCO2)c1 (configuration not stated) and stop.
4.49

====

# tested on: Sialic acid-binding Ig-like lectin 9 (Homo sapiens) (UniProt Q9Y336)
# protocol notes: Hs-Siglec9 ALPHAscreen SOP 20170721
# Parameters: scale not given: direction of the effect not stated beside the values
# assay setup: 10 µM
metric name: Percent Effect (%)
Quick note: give the figure in %, leave out the unit.

As a guide, the following entries are already answered.
Specify Percent Effect for CCCc1nc(CN2CCCC2Cn2cncn2)cs1 (centres undefined) and stop.
9.38

Specify Percent Effect for COCC(=O)N1CCC2(CC1)CCN(Cc1ccccn1)C2=O and stop.
-5.87

Specify Percent Effect for c1ccc(-c2nc(CN3CCOC(Cn4cccn4)C3)no2)cc1 (centres undefined) and stop.
-2.67

// below: Percent Effect requested for another compound
Specify Percent Effect for O=C(NCC1COCc2c(-c3cccnc3)nnn2C1)c1cccs1 (centres undefined) and stop.
-6.14

====

# Species: Homo sapiens
# protocol notes: To identify inhibition of the IFN signalling (Jak-Stat) pathway via expression of an eGFP reporter gene under the control of an IFN-stimulated response element (ISRE) containing MxA promoter.
# Type: functional
# Design: scale not given: direction of the effect not stated beside the values
# assay setup: 30 µM
Recorded Percent Effect for the following molecules
Quick note: give the figure in %, leave out the unit.

Specify Percent Effect for CC(O)CNC(=O)NCc1ccc(N2CCNC(=O)C2)cc1 (stereo unspecified) and stop.
-4.97

Specify Percent Effect for Cc1cnn(CC2CCCCN2Cc2cc(C)on2)c1 (stereo unspecified) and stop.
8.23

Specify Percent Effect for COc1ccc(C2CC(=O)Oc3cc(C)[nH]c(=O)c32)cc1 (stereo unspecified) and stop.
3.33

Specify Percent Effect for O=C1C(NCc2nnc3n2CCCC3)CCCN1c1cccc(F)c1 (stereo unspecified) and stop.
19.1

Specify Percent Effect for CCOCC1CC2(CCN(C(=O)c3ccccc3F)CC2)CO1 (stereo unspecified) and stop.
-3.95

// below: Percent Effect requested for another molecule
Specify Percent Effect for Nc1nc(C2CCN(C(=O)c3cncs3)CC2)cs1 and stop.
-3.51

====

Recorded Percent Effect for the following compounds
# System: Trypanosoma cruzi
# protocol notes: Trypanosoma cruzi phosphomannomutase and mannose-1-phosphate guanylyltransferase assay
# Assay type: functional
# Parameters: scale not given: direction of the effect not stated beside the values
# assay setup: 10 µM
Reply with the number and its unit after it.

As a guide, the following entries are already answered.
Specify Percent Effect for CN(C)CCN1CCC2(CC1)CN(c1cccnc1)C(=O)CO2 and stop.
-5.18%

Specify Percent Effect for COc1ccc2c(c1)CCCN2Cc1nc2c(cnn2C)c(=O)[nH]1 and stop.
-2.36%

Specify Percent Effect for COCC(C)N(C)C(=O)c1nc(S(C)(=O)=O)n2ccccc12 (stereo not drawn) and stop.
-2.35%

Specify Percent Effect for O=C(Nc1cc(F)ccc1OCC1CCCO1)c1ccccn1 (stereo not drawn) and stop.
3.04%

***
Specify Percent Effect for Cc1nn(C)c(Cl)c1CNCc1ccc(OCC(N)=O)cc1 and stop.
4.42%

Specify Percent Effect for Cc1cccc(CNCc2c(C)nn(C)c2N2CCOCC2)n1 and stop.
5.09%

Specify Percent Effect for CC(C)NC(=O)CC1COC2(CCN(Cc3ccccc3)CC2)C1 (stereo not drawn) and stop.
-2.25%

Specify Percent Effect for Cc1cc(NC(=O)NCC(O)c2ccc(Cl)cc2Cl)n(C)n1 (stereo not drawn) and stop.
0.376%

Specify Percent Effect for CN(Cc1cc2c(cc1OC(F)F)OCO2)Cc1nccn1C and stop.
1.27%

Specify Percent Effect for O=C1CN(Cc2ccc(-c3ccccc3C(=O)O)cc2)CCN1 and stop.
-4.73%

Specify Percent Effect for CC1=N[C@@]2(CC[C@@H]3CN(S(=O)(=O)N(C)C)C[C@@H]32)C(=O)N1CC(C)C and stop.
-6.75%
